# ASSAY_TEXT: Charge class Q, dominant calculated charge state at pH 7.4
# Assay type: physicochemical
# RUN_PARAMETERS: dominant calculated concentration fraction of the drug in a charge state
PARAMETER: Q (charge class)

As a guide, the following entries are already answered.
Prompt line: Record request: Q (charge class) value, item `COc1ccc2c(c1)c(CC(=O)O)c(C)n2C(=O)c1ccc(Cl)cc1`
Response line: −

Prompt line: Which Q (charge class) value is on record for `CCCC(CCC)C(=O)O` ?
Response line: −

Prompt line: Given the entry `CC(C)(C)NC(=O)[C@@H]1C[C@@H]2CCCC[C@@H]2CN1C[C@@H](O)[C@H](Cc1ccccc1)NC(=O)[C@H](CC(N)=O)NC(=O)c1ccc2ccccc2n1` , report its measured Q (charge class).
Response line: 0

Prompt line: Look up Q (charge class): `CN1CCN(C2=Nc3cc(Cl)ccc3Nc3ccccc32)CC1`
Response line: +

Prompt line: Form field: reported Q (charge class) of `OCCN1CCN(CCCN2c3ccccc3Sc3ccc(C(F)(F)F)cc32)CC1`
Response line: +

Prompt line: Find the recorded Q (charge class) belonging to CC(C)(C)c1ccc(C(O)CCCN2CCC(C(O)(c3ccccc3)c3ccccc3)CC2)cc1 (stereo not shown) and report it.
Response line: +

Prompt line: # lookup: Q (charge class) of `OCCOCCN1CCN(C2=Nc3ccccc3Sc3ccccc32)CC1`
Response line: 0

Prompt line: // query Q (charge class) value for entry `CC[C@]1(O)C[C@@H]2CN(CCc3c([nH]c4ccccc34)[C@@](C(=O)OC)(c3cc4c(cc3OC)N(C)[C@H]3[C@@](O)(C(=O)OC)[C@H](OC(C)=O)[C@]5(CC)C=CCN6CC[C@]43[C@@H]65)C2)C1`
Response line: 0

Could you tell me Q (charge class) for each of these compounds? They are listed below.
1. CC(C)(C(=O)O)c1ccc(C(O)CCCN2CCC(C(O)(c3ccccc3)c3ccccc3)CC2)cc1 (stereo not shown) [Fexofenadine]
2. O=C1NC(=O)C(c2ccccc2)(c2ccccc2)N1
3. CCN(CC)CC(=O)Nc1c(C)cccc1C
4. CN[C@H]1CC[C@@H](c2ccc(Cl)c(Cl)c2)c2ccccc21
5. Cc1cn([C@H]2C[C@H](N=[N+]=[N-])[C@@H](CO)O2)c(=O)[nH]c1=O
6. CN(C)CCCN1c2ccccc2Sc2ccc(Cl)cc21

Response line:
1. ±
2. 0
3. +
4. +
5. 0
6. +

---

Would you mind telling me the reported log PABL of each entry?
# RUN_PARAMETERS: PAMPA
Numbers only.

Record excerpt, results attached:
Prompt line: // returns reported log PABL for input CN(C)CCC=C1c2ccccc2COc2ccccc21 [Doxepin]
Response line: −3.13

Prompt line: So what's the measured log PABL for this one? `CC(=O)[C@H]1CC[C@H]2[C@@H]3CCC4=CC(=O)CC[C@]4(C)[C@H]3CC[C@]12C`
Response line: −3.25

Prompt line: Requested read-out: log PABL. Entry: `CC[C@]1(O)C[C@H]2CN(CCc3c([nH]c4ccccc34)[C@@](C(=O)OC)(c3cc4c(cc3OC)N(C=O)[C@H]3[C@@](O)(C(=O)OC)[C@H](OC(C)=O)[C@]5(CC)C=CCN6CC[C@]43[C@@H]65)C2)C1`
Response line: −4.62

Prompt line: Which value of log PABL has been reported for CC(=O)CC(c1ccccc1)c1c(O)c2ccccc2oc1=O (centres unmarked) in the records?
Response line: −3.04

Prompt line: // lookup log PABL for Cc1cc(=O)n(-c2ccccc2)n1C [Antipyrine]
Response line: −4.46

Prompt line: Query (compound): `COc1ccc2c3c1O[C@H]1C[C@@H](O)C=C[C@@]31CCN(C)C2` ; field requested: log PABL
Response line: −4.89

Prompt line: Quick check: log PABL of `O=c1c(O)c(-c2ccc(O)c(O)c2)oc2cc(O)cc(O)c12` ?
Response line: −4.92

Further cases:
Prompt line: Param item = `NNCCc1ccccc1` ; retrieve measured log PABL.
Response line: −4.58
